ASSAY_TARGET: thrombin (Bos taurus, UniProt P00735)
Construct: mature alpha-thrombin (light plus heavy chain) cut from prothrombin
ASSAY_DETAILS: Fibrinogen coagulation time (thrombin-induced clotting of fibrinogen)
Assay type: biochemical
CONDITION: bovine fibrinogen, borate saline buffer pH 7.4, thrombin 0.1 ml of 5 units/ml, 25°C; control coagulation time 50-55 seconds; read-out: Concentration required to prolong the coagulation time by a factor of 2
Residues, ends and D or L forms follow the SMILES beside them. *: point of attachment. Dansyl = CN(C)c1cccc2c(S(=O)(=O)*)cccc12
Reported IC (2-fold clotting time) values follow for various compounds
OUTCOME_MEASURE: IC (2-fold clotting time)

[[record]]
compound = "CCOC(=O)CNC(=O)[C@H](CCCNC(=N)N)NS(=O)(=O)c1cccc2c(N(C)C)cccc12 [Sample 31] (Dansyl-Arg-Gly-OEt)"
assay_target = "thrombin (Bos taurus, UniProt P00735)"
obs_value = "160 µM"

[[record]]
compound = "CN(C)c1cccc2c(S(=O)(=O)N[C@@H](CCCNC(=N)N)C(=O)N3CCCCC3)cccc12 [Sample 55, diacetate]"
assay_target = "thrombin (Bos taurus, UniProt P00735)"
obs_value = "0.9 µM"

[[record]]
compound = "CN(C)c1cccc2c(S(=O)(=O)N[C@@H](CCCNC(=N)N)C(=O)N3CCCc4ccccc43)cccc12 [Sample 72]"
assay_target = "thrombin (Bos taurus, UniProt P00735)"
obs_value = "6.5 µM"

